# SUBJECT_OF_TEST: D(2) dopamine receptor (Rattus norvegicus)
# EXPERIMENTAL_DETAILS: Ability to bind at Dopamine receptor D2 of rat corpus striatum by displacing [3H]spiperone
READOUT_KIND: IC50 (nM)
Give just the number in nM; leave the unit off.

I'm curious: which IC50 was measured for OC(CCCN1CCN(c2nccc3sccc23)CC1)c1ccc(F)cc1 (stereo unspecified) tested on D(2) dopamine receptor (Rattus norvegicus)? 71.7

Continuing:
I'm curious: which IC50 was measured for CC1CC(=O)N(CCCCN2CCN(c3nccc4sccc34)CC2)C(=O)C1.Cl tested on D(2) dopamine receptor (Rattus norvegicus)? 663

Now the same for CC1(C)CC(=O)N(CCCCN2CCN(c3nccc4sccc34)CC2)C(=O)C1.Cl 115

Now the same for Cl.O=C1c2ccccc2C(=O)N1CCCCN1CCN(c2nccc3sccc23)CC1 306

Now the same for Cl.O=C1c2ccccc2S(=O)(=O)N1CCCCN1CCN(c2nccc3sccc23)CC1 320

Now the same for Cc1cc2c(N3CCN(CCCCN4C(=O)CC(C)(C)CC4=O)CC3)nccc2o1.Cl 708

Now the same for O=C1CSCC(=O)N1CCCCN1CCN(c2nccc3sccc23)CC1 608

====

# pIC50 listing for each entry below
# SUBJECT_OF_TEST: 5-hydroxytryptamine receptor 1A (Rattus norvegicus)
# Sequence (P19327 whole entry): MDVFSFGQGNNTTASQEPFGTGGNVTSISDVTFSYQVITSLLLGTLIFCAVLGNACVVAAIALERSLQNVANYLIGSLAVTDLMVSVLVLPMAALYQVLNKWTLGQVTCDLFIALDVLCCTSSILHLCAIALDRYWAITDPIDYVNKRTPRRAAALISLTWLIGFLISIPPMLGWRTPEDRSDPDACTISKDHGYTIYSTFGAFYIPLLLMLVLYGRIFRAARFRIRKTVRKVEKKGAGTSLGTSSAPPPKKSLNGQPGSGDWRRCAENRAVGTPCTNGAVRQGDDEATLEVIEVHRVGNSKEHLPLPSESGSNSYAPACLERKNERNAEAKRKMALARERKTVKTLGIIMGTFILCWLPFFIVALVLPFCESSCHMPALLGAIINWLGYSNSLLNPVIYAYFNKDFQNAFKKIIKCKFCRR
# EXPERIMENTAL_DETAILS: Ability to bind at serotonin 5-hydroxytryptamine 1A receptors of rat hippocampus by displacing [3H]8-OH-DPAT
# Type: tissue-based
The read-out pIC50 is expressed as -log10 of concentration in moles per litre.

Look at this compound and give its reported pIC50. Cl.O=C1CCCC(=O)N1CCCCN1CCN(c2nccc3sccc23)CC1 8.60

Now the same for CC1CC(=O)N(CCCCN2CCN(c3nccc4sccc34)CC2)C(=O)C1.Cl 8.89

Now the same for Cl.OC(CCCN1CCN(c2nccc3occc23)CC1)c1ccc(F)cc1 (stereo not drawn) 7.91

Now the same for Cl.O=C1c2ccccc2S(=O)(=O)N1CCCCN1CCN(c2nccc3sccc23)CC1 9.17

Now the same for O=C1CSCC(=O)N1CCCCN1CCN(c2nccc3sccc23)CC1 8.94

Now the same for Cc1cc2c(N3CCN(CCCC(O)c4ccc(F)cc4)CC3)nccc2o1.Cl (stereo not drawn) 8.21

Now the same for Cl.O=C1c2ccccc2C(=O)N1CCCCN1CCN(c2nccc3sccc23)CC1 8.57

Continuing:
Look at this compound and give its reported pIC50. Cc1cc2c(N3CCN(CCCCN4C(=O)CC(C)(C)CC4=O)CC3)nccc2o1.Cl 8.31

====

# SUBJECT_OF_TEST: Serotonin 2 (5-HT2) receptor (Rattus norvegicus, UniProt P30994+P08909+P14842)
# EXPERIMENTAL_DETAILS: Ability to bind at 5-hydroxytryptamine 2 receptor of rat cortex by displacing [3H]spiperone
READOUT_KIND: IC50 (nM)
Give just the number in nM; leave the unit off.

Look at this compound and give its reported IC50. Cl.O=C1SC2(CCCC2)C(=O)N1CCCCN1CCN(c2nccc3sc(Br)cc23)CC1 116

Now the same for Cl.O=C1SC2(CCCC2)C(=O)N1CCCCN1CCN(c2nccc3ccsc23)CC1 20.2

Now the same for Cl.O=C1SC2(CCCC2)C(=O)N1CCCCN1CCN(c2nccc3sccc23)CC1 3.9

Alright, here's another compound for you.
Look at this compound and give its reported IC50. Cc1cc2c(N3CCN(CCCCN4C(=O)SC5(CCCC5)C4=O)CC3)nccc2s1.Cl 43.4

====

# IC50 listing for each entry below
# SUBJECT_OF_TEST: 5-hydroxytryptamine receptor 1A (Rattus norvegicus)
# EXPERIMENTAL_DETAILS: Ability to bind at 5-hydroxytryptamine 1A receptor of rat hippocampus by displacing [3H]8-OH-DPAT
# Assay type: tissue-based
Give just the number in µM; leave the unit off.

Example cases with answers are listed next.
I'm curious: which IC50 was measured for Cl.Cn1ccc2c(N3CCN(CCCCN4C(=O)SC5(CCCC5)C4=O)CC3)nccc21 tested on 5-hydroxytryptamine receptor 1A (Rattus norvegicus)? 0.246

Now the same for CC1(C)CC(=O)N(CCCCN2CCN(c3nccc4occc34)CC2)C(=O)C1.Cl 0.00864

Now the same for CN(C)CCCN1c2ccccc2Sc2ccc(Cl)cc21 0.372

Continuing:
I'm curious: which IC50 was measured for Cc1cc2c(N3CCN(CCCCN4C(=O)SC5(CCCC5)C4=O)CC3)nccc2o1.Cl tested on 5-hydroxytryptamine receptor 1A (Rattus norvegicus)? 0.0022

====

# IC50 listing for each entry below
# SUBJECT_OF_TEST: D(2) dopamine receptor (Rattus norvegicus, UniProt P61169)
# Sequence (P61169 whole entry): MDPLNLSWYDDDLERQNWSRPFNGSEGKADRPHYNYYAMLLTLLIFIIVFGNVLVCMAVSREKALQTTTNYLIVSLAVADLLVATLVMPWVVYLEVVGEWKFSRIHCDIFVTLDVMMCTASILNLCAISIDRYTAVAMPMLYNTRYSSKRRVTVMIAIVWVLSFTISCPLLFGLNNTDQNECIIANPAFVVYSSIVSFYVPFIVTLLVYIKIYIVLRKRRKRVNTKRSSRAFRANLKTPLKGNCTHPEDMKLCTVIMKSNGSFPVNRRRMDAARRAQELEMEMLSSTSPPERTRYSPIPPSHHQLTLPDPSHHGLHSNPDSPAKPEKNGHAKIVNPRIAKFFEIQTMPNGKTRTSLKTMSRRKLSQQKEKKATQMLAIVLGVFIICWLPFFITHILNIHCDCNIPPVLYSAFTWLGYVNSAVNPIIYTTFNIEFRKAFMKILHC
# EXPERIMENTAL_DETAILS: Ability to bind at Dopamine receptor D2 of rat corpus striatum by displacing [3H]spiperone
Give just the number in nM; leave the unit off.

Look at this compound and give its reported IC50. CC1(C)CC(=O)N(CCCCN2CCN(c3nccc4sc(Br)cc34)CC2)C(=O)C1.Cl 228

Continuing:
Look at this compound and give its reported IC50. Cl.OC(CCCN1CCN(c2nccc3occc23)CC1)c1ccc(F)cc1 (centres undefined) 339

====

# SUBJECT_OF_TEST: UniProtKB P61169
# EXPERIMENTAL_DETAILS: Ability to bind at dopamine receptor D2 of rat corpus striatum by displacing [3H]spiperone
READOUT_KIND: pIC50
The read-out pIC50 is expressed as -log10 of concentration in moles per litre.

Example cases with answers are listed next.
Look at this compound and give its reported pIC50. Cc1cc2c(N3CCN(CCCCN4C(=O)SC5(CCCC5)C4=O)CC3)nccc2s1.Cl 6.55

Now the same for Cl.O=C1SC2(CCCC2)C(=O)N1CCCCN1CCN(c2nccc3sccc23)CC1 7.05

Now the same for CC1(C)CC(=O)N(CCCCN2CCN(c3nccc4occc34)CC2)C(=O)C1.Cl 6.20

Continuing:
Look at this compound and give its reported pIC50. Cl.O=C1SC2(CCCC2)C(=O)N1CCCCN1CCN(c2nccc3occc23)CC1 6.48

Now the same for Cl.O=C1SC2(CCCC2)C(=O)N1CCCCN1CCN(c2nccc3sc(Br)cc23)CC1 6.36

====

# SUBJECT_OF_TEST: Serotonin 1 (5-HT1) receptor (Rattus norvegicus, UniProt P28564+P30940+P19327+P28565)
# EXPERIMENTAL_DETAILS: Ability to bind at 5-hydroxytryptamine 1 receptor of rat hippocampus by displacing [3H]5-HT
# Assay type: tissue-based
READOUT_KIND: IC50 (nM)
Give just the number in nM; leave the unit off.

Example cases with answers are listed next.
I'm curious: which IC50 was measured for CC1(C)CC(=O)N(CCCCN2CCN(c3nccc4sccc34)CC2)C(=O)C1.Cl tested on Serotonin 1 (5-HT1) receptor (Rattus norvegicus, UniProt P28564+P30940+P19327+P28565)? 5.7

Now the same for Cl.O=C1c2ccccc2C(=O)N1CCCCN1CCN(c2nccc3sccc23)CC1 5.3

Now the same for Cl.O=C1SC2(CCCC2)C(=O)N1CCCCN1CCN(c2nccc3sccc23)CC1 8.1

Now the same for Cc1cc2c(N3CCN(CCCCN4C(=O)SC5(CCCC5)C4=O)CC3)nccc2s1.Cl 3.6

Now the same for O=C1COCC(=O)N1CCCCN1CCN(c2nccc3occc23)CC1 33.5

Now the same for Cl.O=C1SC2(CCCC2)C(=O)N1CCCCN1CCN(c2nccc3sc(Br)cc23)CC1 25.3

Now the same for CC1(C)CC(=O)N(CCCCN2CCN(c3nccc4sc(Br)cc34)CC2)C(=O)C1.Cl 3.7

Now the same for Cl.O=C1SC2(CCCC2)C(=O)N1CCCCN1CCN(c2nccc3ccsc23)CC1 3.7

Alright, here's another compound for you.
I'm curious: which IC50 was measured for CC1CC(=O)N(CCCCN2CCN(c3nccc4sccc34)CC2)C(=O)C1.Cl tested on Serotonin 1 (5-HT1) receptor (Rattus norvegicus, UniProt P28564+P30940+P19327+P28565)? 8.8
